Value source: patent US11040954B1

# Target Or Test System: CXCR3 (Homo sapiens)
# Construct: host or cells: CHO-K1 (cAMP Hunter CHOK1 CXCR3 Gi cell line)
# Sequence (P49682 whole entry): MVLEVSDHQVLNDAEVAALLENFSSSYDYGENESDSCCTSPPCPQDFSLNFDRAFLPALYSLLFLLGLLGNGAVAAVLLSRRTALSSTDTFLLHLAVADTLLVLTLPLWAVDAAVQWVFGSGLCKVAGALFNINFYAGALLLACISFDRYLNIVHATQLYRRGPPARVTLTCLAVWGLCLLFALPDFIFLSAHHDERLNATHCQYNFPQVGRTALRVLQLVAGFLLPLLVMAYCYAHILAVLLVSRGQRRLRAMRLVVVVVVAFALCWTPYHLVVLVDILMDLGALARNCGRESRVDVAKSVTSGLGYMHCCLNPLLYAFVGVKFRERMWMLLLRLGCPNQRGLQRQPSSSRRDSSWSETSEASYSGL
# Assay Overview: CXCR3 cAMP agonist assay (cAMP Hunter CHOK1 CXCR3 Gi cell line, forskolin-stimulated, HitHunter cAMP detection)
# Assay type: cell-based
# Condition Details: cAMP Hunter CHOK1 CXCR3 Gi cells, 20 μM forskolin, 30 minutes; read-out: Activity (CXCR3 cAMP agonist assay compound EC50)
# Protocol: The cAMP Hunter™ CHOK1 CXCR3 Gi cell line was purchased from DiscoveRx. Cells were seeded into a 96-well white assay plate at 50,000 cells/well/94 μl assay buffer (Hank's Buffered Saline Solution, 10 mM HEPES, 0.1% fatty acid-free BSA, pH 7.4) and immediately assayed in suspension. […] Direct detection of cAMP was carried out using the DiscoveRx HitHunter cAMP kit according to manufacturer's instructions, and luminescence was read using a SpectraMax M5 plate reader.
pEC50: −log10 of the molar value.
Measured Endpoint: pEC50

Here is how some compounds turned out for pEC50.
Cc1cc(NC(=O)[C@H](CCN)NC(=O)[C@@H]2Cc3ccccc3CN2C(=O)CCC(=O)N2CCC[C@H]2C(F)F)ccc1Cl [Compound 12-143] ... > 7.30
Cc1cc(NC(=O)[C@H](CCN)NC(=O)[C@@H]2Cc3ccccc3CN2C(=O)CCC(=O)N2CCCC(C)(C)C2)ncc1Cl [Compound 12-155] ... > 7.30
Cc1cc(NC(=O)[C@H](Cc2ccnc(N)c2)NC(=O)[C@@H]2Cc3ccccc3CN2C(=O)CCC(=O)c2ccccc2)ccc1Cl [Compound 3-10] ... 6.60 to 7.30
NCCCC[C@H](NC(=O)[C@@H]1Cc2ccccc2CN1C(=O)CCC(=O)c1ccccc1)C(=O)Nc1ccc(F)c(F)c1 [Compound 1-21] ... < 6.30
CC(C)(C)CC1CCCCN1C(=O)CCC(=O)N1Cc2ccccc2C[C@H]1C(=O)N[C@@H](CCN)C(=O)Nc1ccc(Cl)c(Cl)c1F (stereo partly shown) [Compound 15-14] ... 6.60 to 7.30
Cc1ccc(NC(=O)[C@H](CCN)NC(=O)[C@@H]2Cc3ccccc3CN2C(=O)CCC(=O)c2ccccc2)c(Cl)c1 [Compound 2-36] ... 6.30 to 6.60
O=C(CCC(=O)N1Cc2ccccc2C[C@H]1C(=O)NC1(C(=O)Nc2ccc3c(c2)CCC3)CCNCC1)c1ccccc1 [Compound 13-1] ... > 7.30
O=C(CCC(=O)N1Cc2ccccc2C[C@H]1C(=O)N[C@@H](CCN1CCC(F)(F)CC1)C(=O)Nc1ccc(Cl)c(Cl)c1F)c1ccccc1 [Compound 23-2] ... 6.60 to 7.30

Retrieve pEC50 on CXCR3 (Homo sapiens); query NCC[C@H](NC(=O)[C@@H]1Cc2ccccc2CN1C(=O)CCC(=O)c1ccccc1)C(=O)Nc1cc(Cl)c(Cl)cc1F [Compound 2-20]
6.60 to 7.30

Retrieve pEC50 on CXCR3 (Homo sapiens); query Cc1cc(NC(=O)[C@H](CCN)NC(=O)[C@@H]2Cc3ccccc3CN2C(=O)CCC(=O)c2ccccc2)ncc1Cl [Compound 4-16]
> 7.30

Retrieve pEC50 on CXCR3 (Homo sapiens); query Cc1cnc(NC(=O)[C@H](CCN)NC(=O)[C@@H]2Cc3ccccc3CN2C(=O)CCC(=O)c2ccccc2)cc1Cl [Compound 27-1]
> 7.30

Retrieve pEC50 on CXCR3 (Homo sapiens); query CC1CN(C(=O)CCC(=O)N2Cc3ccccc3C[C@H]2C(=O)N[C@@H](CCN)C(=O)Nc2ccc(Cl)c(Cl)c2F)CCN1C (stereo partly shown) [Compound 15-5]
> 7.30

Retrieve pEC50 on CXCR3 (Homo sapiens); query Cc1cc(NC(=O)[C@H](Cc2cncn2C)NC(=O)[C@@H]2Cc3ccccc3CN2C(=O)CCC(=O)c2ccccc2)ccc1Cl [Compound 5-2]
6.60 to 7.30

Retrieve pEC50 on CXCR3 (Homo sapiens); query CC1(C)COCCN1C(=O)CCC(=O)N1Cc2ccccc2C[C@H]1C(=O)N[C@@H](CCN)C(=O)Nc1ccc(Cl)c(Cl)c1F [Compound 15-11]
> 7.30

Retrieve pEC50 on CXCR3 (Homo sapiens); query CCC1CCN(C(=O)CCC(=O)N2Cc3ccccc3C[C@H]2C(=O)N[C@@H](CCN)C(=O)Nc2ccc(Cl)c(C)c2)CC1 [Compound 12-61]
> 7.30

Retrieve pEC50 on CXCR3 (Homo sapiens); query Cc1cc(NC(=O)[C@H](CCN)NC(=O)[C@@H]2Cc3ccccc3CN2C(=O)CCC(=O)N2CCOC[C@@H]2C)ccc1Cl [Compound 12-27]
6.60 to 7.30

Retrieve pEC50 on CXCR3 (Homo sapiens); query Cc1cc(NC(=O)[C@H](CCN)NC(=O)[C@@H]2Cc3ccccc3CN2C(=O)CCC(=O)N2CCC3(CC3)C2)ccc1Cl [Compound 12-69]
> 7.30

Retrieve pEC50 on CXCR3 (Homo sapiens); query Cc1cc(NC(=O)[C@H](Cc2cnc(N)nc2)NC(=O)[C@@H]2Cc3ccccc3CN2C(=O)CCC(=O)c2ccccc2)ccc1Cl [Compound 3-14]
6.30 to 6.60

Retrieve pEC50 on CXCR3 (Homo sapiens); query CC1(C)CCCCN1C(=O)CCC(=O)N1Cc2ccccc2C[C@H]1C(=O)N[C@@H](CCN)C(=O)Nc1ccc(Cl)c(Cl)c1F [Compound 15-3]
> 7.30

Retrieve pEC50 on CXCR3 (Homo sapiens); query CCc1cccc(NC(=O)[C@H](CCN)NC(=O)[C@@H]2Cc3ccccc3CN2C(=O)CCC(=O)c2ccccc2)c1OC [Compound 13-5]
6.60 to 7.30

Retrieve pEC50 on CXCR3 (Homo sapiens); query CN(C(=O)CCC(=O)N1Cc2ccccc2C[C@H]1C(=O)N[C@@H](CCN)C(=O)Nc1ccc(Cl)c(Cl)c1F)C1CCCC1 [Compound 15-36]
> 7.30

Retrieve pEC50 on CXCR3 (Homo sapiens); query Cc1cc(NC(=O)[C@H](CCN)NC(=O)[C@@H]2Cc3ccccc3CN2C(=O)CCC(=O)NC2(C(F)(F)F)CC2)ccc1Cl [Compound 12-85]
< 6.30

Retrieve pEC50 on CXCR3 (Homo sapiens); query Cc1cc(NC(=O)C2(NC(=O)[C@@H]3Cc4ccccc4CN3C(=O)CCC(=O)c3ccccc3)CCNCC2)ccc1Cl [Compound 4-12]
6.60 to 7.30

Retrieve pEC50 on CXCR3 (Homo sapiens); query Cc1ccc(Cl)c(NC(=O)[C@H](CCN)NC(=O)[C@@H]2Cc3ccccc3CN2C(=O)CCC(=O)c2ccccc2)c1 [Compound 2-35]
6.60 to 7.30

Retrieve pEC50 on CXCR3 (Homo sapiens); query Cc1cc(NC(=O)[C@H](CCN)NC(=O)[C@@H]2Cc3ccccc3CN2C(=O)CCC(=O)N2[C@@H](C)CCC[C@@H]2C)ccc1Cl [Compound 12-142]
> 7.30
